# system_under_test: Protein phosphatase 3 catalytic subunit alpha (Homo sapiens); further: in other assays of this panel Not Active means under 50% inhibition at 10 µM;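 further: inhibition of calcineurin (PP2B) enzyme activity, measured with DiFMUP as the substrate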
# Parameters: species or system Escherichia coli
# run_conditions: read-out: IC50
measured_attribute: pIC50
Please express pIC50 as -log10 of the molar concentration.

Give the measured pIC50 of `CC/C(=C(\c1ccccc1)c1ccc(OCCN(C)C)cc1)c1ccccc1` .
4.51

* * *

# system_under_test: Carbonic anhydrase 2 (Homo sapiens)
# assay_info: DRUGMATRIX: Carbonic Anhydrase II enzyme inhibition (substrate: 4-Nitrophenyl acetate (4-NPA))
# Format: tissue-based, Erythrocyte
# run_conditions: erythrocyte; Not Active = under 50% inhibition at 10 µM
measured_attribute: IC50

                           substance                    system_under_test  measured_attribute      result
0                    CADMIUM ACETATE  Carbonic anhydrase 2 (Homo sapiens)                IC50  Not Active
1  LIPOPOLYSACCHARIDE E. COLI O55:B5  Carbonic anhydrase 2 (Homo sapiens)                IC50  Not Active
2               SODIUM NITROPRUSSIDE  Carbonic anhydrase 2 (Homo sapiens)                IC50  Not Active
3                  LEAD (II) ACETATE  Carbonic anhydrase 2 (Homo sapiens)                IC50  Not Active
